System: A431
Test: filipin (cholesterol) integrated intensity within LBPA endosomes, Z-score; higher = more cholesterol in LBPA endosomes
Conditions: compound concentration in added solution (µM; 5 µl added to 20 µl cells): 10; 18 h
Structures can show the parent of a compound that is named as a salt.
# filipin (z-score) >= -0.2 gives Condition met, anything below gives Condition not met

Data request: Decide: filipin (z-score) of Cc1ccc(S(=O)(=O)NC(=O)NN2CC3CCCC3C2)cc1 (stereo not drawn) [Gliclazide] >= -0.2?
Data returned: Condition not met

Data request: Decide: filipin (z-score) of CC(C)NCC(O)c1ccc(O)c(O)c1 (single isomer, unassigned; (-)) [(-)-Isoproterenol hydrochloride] >= -0.2?
Data returned: Condition not met

Data request: Decide: filipin (z-score) of CC(=O)CC(c1ccccc1)c1c(O)c2ccccc2oc1=O (stereo not drawn) >= -0.2?
Data returned: Condition not met

Provenance of the data: the supplement of paper PMC6607015
